Tested on: Citrobacter freundii
run.description: Antimicrobial activity against Citrobacter freundii ATCC 8090 after18 to 20 hrs by broth dilution method
Type: functional
quantity.measured: MIC (µg/mL)

In the examples that follow, each entry is paired with its recorded MIC.
smiles.str: O=S(=O)(c1ccccc1)c1ccc(-c2nnc3sc(-c4ccc(Cl)cc4)nn23)cc1
value.units: µg/mL
MIC: 512
//
smiles.str: O=S(=O)(c1ccc(Br)cc1)c1ccc(-c2nnc3sc(Nc4ccc(Br)cc4)nn23)cc1
value.units: µg/mL
MIC: 1020
//
smiles.str: NCc1ccc(-c2nn3c(-c4ccc(S(=O)(=O)c5ccc(Br)cc5)cc4)nnc3s2)cc1
value.units: µg/mL
MIC: 1020
//
smiles.str: Cc1ccc(Nc2nn3c(-c4ccc(S(=O)(=O)c5ccc(Br)cc5)cc4)nnc3s2)cc1
value.units: µg/mL
MIC: 1020

P. COc1ccc(-c2nn3c(-c4ccc(S(=O)(=O)c5ccc(Br)cc5)cc4)nnc3s2)cc1
Q. O=S(=O)(c1ccccc1)c1ccc(-c2nnc3sc(-c4ccc(Br)cc4)nn23)cc1
R. O=S(=O)(c1ccc(Br)cc1)c1ccc(-c2nnc3sc(-c4cc(O)c(O)c(O)c4)nn23)cc1
S. COc1ccc(Nc2nn3c(-c4ccc(S(=O)(=O)c5ccc(Br)cc5)cc4)nnc3s2)cc1
IN: Parameters: sort_field (MIC), sort_dir (desc). Form entry: labels listed in requested order.
OUT: Q, P, S, R

P. COc1ccc(-c2nn3c(-c4ccc(S(=O)(=O)c5ccccc5)cc4)nnc3s2)cc1
Q. O=S(=O)(c1ccccc1)c1ccc(-c2nnc3sc(-c4ccc(Cl)c(Br)c4)nn23)cc1
R. O=S(=O)(c1ccc(Br)cc1)c1ccc(-c2nnc3sc(-c4ccc(Br)cc4)nn23)cc1
S. Nc1ccc(-c2nn3c(-c4ccc(S(=O)(=O)c5ccccc5)cc4)nnc3s2)cc1
IN: Order field: MIC | Direction: descending (largest first) Please write the labels in the order that was asked for.
OUT: Q, P, S, R
(Q: 1020 µg/mL, P: 512 µg/mL, S: 256 µg/mL, R: 128 µg/mL)

P. O=S(=O)(c1ccc(Br)cc1)c1ccc(-c2nnc3sc(-c4ccc(Cl)cc4)nn23)cc1
Q. NCc1ccc(-c2nn3c(-c4ccc(S(=O)(=O)c5ccccc5)cc4)nnc3s2)cc1
IN: From the recorded data, which exceeds the other in MIC: P or Q ? Write the label of whichever entry you select.
OUT: Q
(Q: 1020 µg/mL, P: 512 µg/mL)

A. O=S(=O)(c1ccccc1)c1ccc(-c2nnc3sc(O)nn23)cc1
B. O=S(=O)(c1ccc(Br)cc1)c1ccc(-c2nnc3sc(-c4ccc(Cl)c(Br)c4)nn23)cc1
IN: Identify the entry with the larger MIC. Options: A and B Kindly give the label for the entry you pick.
OUT: B
(B: 1020 µg/mL, A: 512 µg/mL)

----------
Tested on: Candida albicans
run.description: Antimicrobial activity against Candida albicans ATCC 90028 after 48 hrs by broth dilution method
Format: functional
test.settings: ATCC 90028, 48 h
quantity.measured: MIC (µg/mL)

Please review the entries below; each comes with its answer.
smiles.str: O=S(=O)(c1ccc(Br)cc1)c1ccc(-c2nnc3sc(-c4ccc(Br)cc4)nn23)cc1
quantity.measured: MIC
value.units: µg/mL
result.value: 128

smiles.str: Cc1ccc(Nc2nn3c(-c4ccc(S(=O)(=O)c5ccc(Br)cc5)cc4)nnc3s2)cc1
quantity.measured: MIC
value.units: µg/mL
result.value: 128

I. O=S(=O)(c1ccccc1)c1ccc(-c2nnc3sc(-c4ccc(Cl)cc4)nn23)cc1
II. O=S(=O)(c1ccc(Br)cc1)c1ccc(-c2nnc3sc(Nc4ccc(Br)cc4)nn23)cc1
IN: # returns the entry with the larger MIC; inputs I and II Provide the label of your selected option as the answer.
OUT: I
(I: 512 µg/mL, II: 128 µg/mL)

----------
Test system: Acinetobacter baumannii
run.description: Antimicrobial activity against Acinetobacter baumannii ATCC 19606 after18 to 20 hrs by broth dilution method
Type: functional
quantity.measured: MIC (µg/mL)

1. Nc1ccc(-c2nn3c(-c4ccc(S(=O)(=O)c5ccccc5)cc4)nnc3s2)cc1
2. COc1ccc(-c2nn3c(-c4ccc(S(=O)(=O)c5ccc(Br)cc5)cc4)nnc3s2)cc1
3. O=S(=O)(c1ccc(Br)cc1)c1ccc(-c2nnc3sc(Nc4ccc(Br)cc4)nn23)cc1
4. NCc1ccc(-c2nn3c(-c4ccc(S(=O)(=O)c5ccccc5)cc4)nnc3s2)cc1
IN: Sequence the entries by MIC, beginning with the highest number. I'd appreciate it if you listed the labels in the requested order.
OUT: 4, 3, 2, 1
(4: 1020 µg/mL, 3: 512 µg/mL, 2: 256 µg/mL, 1: 128 µg/mL)

----------
Test system: Candida albicans
run.description: Antimicrobial activity against Candida albicans ATCC 90028 after 48 hrs by broth dilution method
Type: functional
test.settings: ATCC 90028, 48 h
quantity.measured: MIC (mg/L)

Example cases with answers are listed next.
smiles.str: Cc1ccc(Nc2nn3c(-c4ccc(S(=O)(=O)c5ccccc5)cc4)nnc3s2)cc1
target: Candida albicans
MIC / mg/L: 256
--
smiles.str: O=S(=O)(c1ccc(Br)cc1)c1ccc(-c2nnc3sc(-c4ccc(Cl)c(Br)c4)nn23)cc1
target: Candida albicans
MIC / mg/L: 256

A. NCc1ccc(-c2nn3c(-c4ccc(S(=O)(=O)c5ccccc5)cc4)nnc3s2)cc1
B. Nc1ccc(-c2nn3c(-c4ccc(S(=O)(=O)c5ccccc5)cc4)nnc3s2)cc1
C. O=S(=O)(c1ccc(Br)cc1)c1ccc(-c2nnc3sc(-c4ccc(Cl)cc4)nn23)cc1
IN: Hi! Can you put these in order of MIC, lowest number first? In your reply, arrange the labels in the requested order.
OUT: B, A, C

----------
System: Staphylococcus aureus
run.description: Antimicrobial activity against Staphylococcus aureus ATCC 25923 after18 to 20 hrs by broth dilution method
Assay type: functional
quantity.measured: MIC (µg/mL)

Here is how some molecules turned out for MIC.
smiles.str: Nc1ccc(-c2nn3c(-c4ccc(S(=O)(=O)c5ccc(Br)cc5)cc4)nnc3s2)cc1
MIC, µg/mL: 256
//
smiles.str: Cc1ccc(Nc2nn3c(-c4ccc(S(=O)(=O)c5ccccc5)cc4)nnc3s2)cc1
MIC, µg/mL: 1020
//
smiles.str: COc1ccc(Nc2nn3c(-c4ccc(S(=O)(=O)c5ccc(Br)cc5)cc4)nnc3s2)cc1
MIC, µg/mL: 512
//
smiles.str: COc1ccc(-c2nn3c(-c4ccc(S(=O)(=O)c5ccc(Br)cc5)cc4)nnc3s2)cc1
MIC, µg/mL: 128
//
smiles.str: Cc1ccc(Nc2nn3c(-c4ccc(S(=O)(=O)c5ccc(Br)cc5)cc4)nnc3s2)cc1
MIC, µg/mL: 512

1. O=S(=O)(c1ccccc1)c1ccc(-c2nnc3sc(O)nn23)cc1
2. Nc1ccc(-c2nn3c(-c4ccc(S(=O)(=O)c5ccccc5)cc4)nnc3s2)cc1
IN: Please indicate which has the smaller reported MIC: 1 , or 2 . Indicate which entry you chose by stating its label.
OUT: 1

1. O=S(=O)(c1ccccc1)c1ccc(-c2nnc3sc(-c4ccc(Cl)c(Br)c4)nn23)cc1
2. NCc1ccc(-c2nn3c(-c4ccc(S(=O)(=O)c5ccccc5)cc4)nnc3s2)cc1
IN: Pick the one with the larger MIC: 1 vs 2 Kindly give the label for the entry you pick.
OUT: 2
(2: 512 µg/mL, 1: 256 µg/mL)

A. O=S(=O)(c1ccc(Br)cc1)c1ccc(-c2nnc3sc(O)nn23)cc1
B. COc1ccc(Nc2nn3c(-c4ccc(S(=O)(=O)c5ccccc5)cc4)nnc3s2)cc1
IN: Form: Entry with minimum MIC (choose one): A / B Answer with the label corresponding to your selection.
OUT: A

----------
Test system: Acinetobacter baumannii
run.description: Antimicrobial activity against Acinetobacter baumannii ATCC 19606 after18 to 20 hrs by broth dilution method
Type: functional
quantity.measured: MIC (µg/mL)

Answered cases to consult:
smiles.str: O=S(=O)(c1ccccc1)c1ccc(-c2nnc3sc(Nc4ccc(Br)cc4)nn23)cc1
quantity.measured: MIC
result.value: 512
--
smiles.str: Cc1ccc(Nc2nn3c(-c4ccc(S(=O)(=O)c5ccccc5)cc4)nnc3s2)cc1
quantity.measured: MIC
result.value: 128
--
smiles.str: COc1ccc(-c2nn3c(-c4ccc(S(=O)(=O)c5ccccc5)cc4)nnc3s2)cc1
quantity.measured: MIC
result.value: 512
--
smiles.str: O=S(=O)(c1ccc(Br)cc1)c1ccc(-c2nnc3sc(-c4ccc(Br)cc4)nn23)cc1
quantity.measured: MIC
result.value: 256

1. O=S(=O)(c1ccc(Br)cc1)c1ccc(-c2nnc3sc(-c4cc(O)c(O)c(O)c4)nn23)cc1
2. O=S(=O)(c1ccccc1)c1ccc(-c2nnc3sc(-c4ccc(Cl)cc4)nn23)cc1
3. O=S(=O)(c1ccc(Br)cc1)c1ccc(-c2nnc3sc(O)nn23)cc1
IN: rank_up(items): orders items by reported MIC in ascending numerical order. Give the labels in the order specified.
OUT: 1, 3, 2
(1: 128 µg/mL, 3: 256 µg/mL, 2: 512 µg/mL)
